The values you see were collected from patent US12570659B2.

# target: IRAK4 (Homo sapiens (Human), UniProt Q9NWZ3)
# Sequence (Q9NWZ3 whole entry, species assumed): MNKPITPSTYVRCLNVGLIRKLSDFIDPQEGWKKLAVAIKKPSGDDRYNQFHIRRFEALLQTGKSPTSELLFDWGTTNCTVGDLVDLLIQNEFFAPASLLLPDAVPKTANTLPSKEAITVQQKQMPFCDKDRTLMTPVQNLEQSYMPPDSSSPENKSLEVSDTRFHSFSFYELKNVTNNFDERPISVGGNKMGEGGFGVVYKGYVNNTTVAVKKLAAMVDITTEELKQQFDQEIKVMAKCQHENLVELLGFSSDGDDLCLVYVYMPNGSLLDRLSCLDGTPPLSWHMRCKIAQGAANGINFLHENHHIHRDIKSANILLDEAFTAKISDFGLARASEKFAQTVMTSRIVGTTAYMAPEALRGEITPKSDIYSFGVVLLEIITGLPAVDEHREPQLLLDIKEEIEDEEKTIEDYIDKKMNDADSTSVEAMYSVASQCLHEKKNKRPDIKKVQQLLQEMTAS
# assay.summary: IRAK4 Inhibition Assay
# Type: biochemical
# protocol.conditions: ATP 500 μM; IRAK4 0.6 nM; 60 min room temperature

{"smiles.entry": "CC(C)(O)[C@H](F)CNC(=O)c1cnn2cc(-c3ccccc3)cc2c1NC1CC1", "IC50, nM": 33}
{"smiles.entry": "CC(C)Nc1c(C(=O)NC[C@@H](F)C(C)(C)O)cnn2cc(C#N)cc12", "IC50, nM": 190}
{"smiles.entry": "Cc1cc(F)ncc1-c1cc2c(NC(C)C)c(C(=O)N[C@H]3CC[C@H](c4nc[nH]n4)CC3)cnn2c1", "IC50, nM": 5.2}
{"smiles.entry": "COC(=O)N[C@H]1CC[C@H](NC(=O)c2cnn3cc(-c4cccnc4)cc3c2NC(C)C)CC1", "IC50, nM": 11.3}
{"smiles.entry": "CC(=O)N[C@H]1CC[C@H](NC(=O)c2cnn3cc(-c4ccncc4C)cc3c2NC(C)C)CC1", "IC50, nM": 1.6}
{"smiles.entry": "COc1ncccc1-c1cc2ncc(C(=O)NC[C@@H](F)C(C)(C)O)c(NC(C)C)n2n1", "IC50, nM": 630}
{"smiles.entry": "COc1cccc(-c2cc3ncc(C(=O)NC[C@@H](F)C(C)(C)O)c(NC(C)C)n3n2)n1", "IC50, nM": 1400}
{"smiles.entry": "CC(C)Nc1c(C(=O)N[C@H]2CC[C@H](C(N)=O)CC2)cnn2cc(-c3ccncc3F)cc12", "IC50, nM": 3.8}

----------
pIC50: −log10 of the molar value.
Target or system JAK3 kinase (Homo sapiens (Human)): recorded pIC50 listed per item.

{"smiles.entry": "CC(C)Nc1c(C(=O)NC[C@@H](F)C(C)(C)O)cnc2cc(-c3ccccc3F)nn12", "pIC50": "< 5.00"}
{"smiles.entry": "CC(=O)N[C@H]1CC[C@H](NC(=O)c2cnn3cc(-c4cccnc4F)cc3c2NC(C)C)CC1", "pIC50": "~4.38"}
{"smiles.entry": "CC(=O)N[C@H]1CC[C@H](NC(=O)c2cnn3cc(-c4cn[nH]c4)cc3c2NC(C)C)CC1", "pIC50": "< 4.30"}
{"smiles.entry": "CC(=O)N[C@H]1CC[C@H](NC(=O)c2cnn3cc(-c4cnccc4C)cc3c2NC(C)C)CC1", "pIC50": "< 4.30"}
{"smiles.entry": "CC(C)Nc1c(C(=O)NC2CCN(S(C)(=O)=O)CC2)cnn2cc(-c3ccncc3F)nc12", "pIC50": "< 4.30"}
{"smiles.entry": "CC(=O)N[C@H]1CC[C@H](NC(=O)c2cnn3cc(-c4ccc(CO)nc4)cc3c2NC(C)C)CC1", "pIC50": "< 4.30"}
{"smiles.entry": "CC(C)Nc1c(C(=O)NC[C@@H](F)C(C)(C)O)cnn2cc(-c3cnc(N)nc3)cc12", "pIC50": "< 4.30"}
{"smiles.entry": "CC(=O)N[C@H]1CC[C@H](NC(=O)c2cnn3c(Cl)c(-c4ccncc4)cc3c2NC(C)C)CC1", "pIC50": "~4.46"}

----------
# target: UniProt P52333
# assay.summary: JAK3 Homogeneous Time Resolved Fluorescence (HTRF) Assay
# Type: binding
# protocol.conditions: selectivity for IRAK4 over JAK3
# Procedure: JAK3 Homogeneous Time Resolved Fluorescence (HTRF) Assay A time resolved FRET-based competition binding assay was used to assess test article binding to JAK3 kinase. […] Fluorescence at 495 nm and 520 nm was measured using an EnVision microplate reader to quantify FRET between Tb-labeled detection antibody and fluorescein-labeled probe. […] Percent inhibition was determined for test compounds at 11 concentrations. […]
Ratio of JAK3 IC50 to IRAK4 IC50 reference
measurement.kind: Ratio of JAK3 IC50 to IRAK4 IC50

{"smiles.entry": "CC(C)Nc1c(C(=O)N[C@H]2CC[C@H](C(=O)N3CCOCC3)CC2)cnn2cc(-c3ccncc3F)cc12", "value.reported": ">18519"}
{"smiles.entry": "CC(C)Nc1c(C(=O)NC[C@@H](F)C(C)(C)O)cnc2cc(-c3ncco3)nn12", "value.reported": ">227"}
{"smiles.entry": "COc1ccc(-c2cc3c(NC4CCOCC4)c(C(=O)NC[C@@H](F)C(C)(C)O)cnn3c2)cn1", "value.reported": ">175"}
{"smiles.entry": "CC(C)(O)[C@H](F)CNC(=O)c1cnn2cc(-c3cccnc3F)cc2c1NC1CCOCC1", "value.reported": ">2000"}
{"smiles.entry": "CC(C)Nc1c(C(=O)NC[C@@H](F)C(C)(C)O)cnc2cc(-c3ccc(=O)[nH]c3)nn12", "value.reported": ">10204"}
{"smiles.entry": "CC(C)Nc1c(C(=O)NC[C@@H](F)C(C)(C)O)cnn2cc(-n3ncc4cncnc43)cc12", "value.reported": ">13158"}
{"smiles.entry": "Cc1cc(-c2cc3c(NCCC(C)(C)O)c(C(=O)NC[C@@H](F)C(C)(C)O)cnn3c2)ccn1", "value.reported": ">455"}
